Target: UniProt:P29466
Sequence (whole entry): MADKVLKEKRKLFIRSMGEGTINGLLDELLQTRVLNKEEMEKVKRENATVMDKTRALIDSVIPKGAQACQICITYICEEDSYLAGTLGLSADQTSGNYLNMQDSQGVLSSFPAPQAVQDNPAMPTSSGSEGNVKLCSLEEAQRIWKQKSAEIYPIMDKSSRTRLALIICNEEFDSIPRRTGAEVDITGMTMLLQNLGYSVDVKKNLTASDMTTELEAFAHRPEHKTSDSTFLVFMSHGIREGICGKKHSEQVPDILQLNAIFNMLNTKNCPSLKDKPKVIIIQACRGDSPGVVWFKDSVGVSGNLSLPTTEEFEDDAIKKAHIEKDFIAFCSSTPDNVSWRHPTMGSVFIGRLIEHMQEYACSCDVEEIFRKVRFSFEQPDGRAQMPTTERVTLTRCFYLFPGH
Assay: Inhibitory activity against IL-1 beta converting enzyme was determined
Provide the recorded K obs / 1 for the entries that follow.
Kindly provide the numeric value in M⁻¹ s⁻¹ only, without the unit symbol.

# value lookup — system UniProt:P29466, readout K obs / 1, item CC(C)[C@H](NC(=O)OCc1ccccc1)C(=O)N[C@@H](CC(=O)O)C(=O)COC(=O)c1c(Cl)cccc1Cl
41000

# value lookup — system UniProt:P29466, readout K obs / 1, item O=C(O)C[C@H](NC(=O)OCc1ccccc1)C(=O)COC1=C(c2ccc(Cl)cc2)C(=O)OC1
4100

# value lookup — system UniProt:P29466, readout K obs / 1, item CC1(C)OC(=O)C(c2ccccc2)=C1OCC(=O)[C@H](CC(=O)O)NC(=O)OCc1ccccc1
260

# value lookup — system UniProt:P29466, readout K obs / 1, item Cc1ccc(C2=C(OCC(=O)[C@H](CC(=O)O)NC(=O)OCc3ccccc3)COC2=O)cc1
4500

# value lookup — system UniProt:P29466, readout K obs / 1, item O=C(O)C[C@H](NC(=O)OCc1ccccc1)C(=O)COC1=C(c2ccccc2)C(=O)CC1
3070

# value lookup — system UniProt:P29466, readout K obs / 1, item O=C(O)C[C@H](NC(=O)OCc1ccccc1)C(=O)COC1=C(Cc2ccccc2)C(=O)OC1
2850

# value lookup — system UniProt:P29466, readout K obs / 1, item CC(C)[C@H](NC(=O)OCc1ccccc1)C(=O)N[C@@H](CC(=O)O)C(=O)COC1=C(c2ccccc2)C(=O)NC1
8500

# value lookup — system UniProt:P29466, readout K obs / 1, item COc1ccc(C2=C(OCC(=O)[C@H](CC(=O)O)NC(=O)OCc3ccccc3)COC2=O)cc1
4000

###

Provide the recorded log10 of K obs / 1 for the entries that follow.
target: Caspase-1 (Homo sapiens) (UniProt P29466); experiment: Inhibitory activity against IL-1 beta converting enzyme was determined
Each number you see is log10 of K obs / 1, and the unit inside the log is M⁻¹ s⁻¹.

For the compound shown here, O=C(O)C[C@H](NC(=O)OCc1ccccc1)C(=O)COC1=C(c2ccccc2)C(=O)OC1 , give the reported log10 of K obs / 1.
3.76

For the compound shown here, O=C(O)C[C@H](NC(=O)OCc1ccccc1)C(=O)COC(=O)c1c(Cl)cccc1Cl , give the reported log10 of K obs / 1.
3.85

For the compound shown here, CC(C)[C@H](NC(=O)OCc1ccccc1)C(=O)N[C@@H](CC(=O)O)C(=O)COC1=C(Cc2ccccc2)C(=O)OC1 , give the reported log10 of K obs / 1.
4.33

For the compound shown here, O=C(O)C[C@H](NC(=O)OCc1ccccc1)C(=O)COC1=C(c2ccc(Cl)c(Cl)c2)C(=O)OC1 , give the reported log10 of K obs / 1.
2.81

For the compound shown here, O=C(O)C[C@H](NC(=O)OCc1ccccc1)C(=O)COC1=CC(=O)OC1 , give the reported log10 of K obs / 1.
2.27

For the compound shown here, CC(C)[C@H](NC(=O)OCc1ccccc1)C(=O)N[C@@H](CC(=O)O)C(=O)COC1=C(c2ccccc2)C(=O)OC1 , give the reported log10 of K obs / 1.
4.45
